# Test Protocol: NCI Yeast Anticancer Drug Screen. Data for the mlh1 rad18 strain (AID 175)
# Conditions Used: S. cerevisiae mlh1 rad18 strain growth inhibition; at 50.0 µM
The panel holds about 79,000 compounds, 15% with a hit somewhere; the sample as a whole holds those more often. Active and inactive are the calls of the source. Cut-off read from the data, not from the text of the source: active = growth inhibition above about 70%; inactive = the rest.
// classify into active, inactive

Reference set, count: 4
Query: Record request — test call for CCCCC1C(=S)N(c2ccccc2)N(c2ccccc2)C1=S
Response: inactive

Query: Request: CCCCC(CC)CCC(C)OC(=O)C(O)c1ccccc1 (stereo not given)
Response: active

Query: Request: CCCCN(CCCC)/N=C\C1=C2NC(=O)/C(C)=C\C=C/C(OC)C(OC(N)=O)/C(C)=C/C(C)C(O)C(OC)CC(C)CC(=C(OC)C1=O)C2=O (stereo not given)
Response: inactive

Query: Request: c1ccc(-n2ncc3ccc4cccn4c32)cc1
Response: inactive

Turning to the following molecule.
Query: Record request — test call for CCCCCCCCCCCC(O)=C1C(=O)CC(O)CC1=O (stereo not given)
Response: active
